tested on: 695427-040-R-J1-PDC complex spheroid viability; experiment: Anticancer human tumor 695427-040-R-J1-PDC patient-derived colon adenocarcinoma cell line growth inhibition [RAS]; details: second compound 0.3 µM; first compound 0.1 µM; active compounds read low
Please go through the items and note down their viability, T/C.
Just the number please, in %, no unit attached.

Qu. Requested field: viability, T/C. Item: CC(C)NCC(C(=O)N1CCN(c2ncnc3c2C(C)CC3O)CC1)c1ccc(Cl)cc1 (stereo not drawn) + CCn1c(-c2cc(N3CCN(C)CC3)cnc2C(C)OC)c2c3cc(ccc31)-c1csc(n1)CC(NC(=O)C1CC1C)C(=O)N1CCCC(N1)C(=O)OCC(C)(C)C2
Ans. 28.7

Qu. Record: CCN1CCN(Cc2ccc(Nc3ncc(F)c(-c4cc(F)c5nc(C)n(C(C)C)c5c4)n3)nc2)CC1 + CCn1c(-c2cccnc2C(C)OC)c2c3cc(ccc31)N1CCOC(CC(NC(=O)C(C(C)C)N(C)C(=O)C3(F)CCN(C(=O)C#CC(C)(C)N(C)C)CC3)C(=O)N3CCCC(N3)C(=O)OCC(C)(C)C2)C1
Ans. 79

Qu. Also, CCN1CCN(Cc2ccc(Nc3ncc(F)c(-c4cc(F)c5nc(C)n(C(C)C)c5c4)n3)nc2)CC1 + CCn1c(-c2cc(N3CCN(C)CC3)cnc2C(C)OC)c2c3cc(ccc31)-c1csc(n1)CC(NC(=O)C1CC1C)C(=O)N1CCCC(N1)C(=O)OCC(C)(C)C2 please.
Ans. 38.8

----------
Give viability, T/C for every item shown.
system: 695427-040-R-J1-PDC complex spheroid viability; assay: Anticancer human tumor 695427-040-R-J1-PDC cell line growth inhibition [RAS]; details: second compound 0.000949 µM; first compound 3.16 µM; active compounds read low;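 further: viability read after seven days of drug exposure; 100% = DMSO vehicle control viability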
Unit % implied. Number only.

Qu. Look up viability, T/C: C[C@@H](NC(=O)c1ncnc(N)c1Cl)c1ncc(C(=O)Nc2cc(C(F)(F)F)c(Cl)cn2)s1 + CCn1c(-c2cc(N3CCN(C)CC3)cnc2C(C)OC)c2c3cc(ccc31)-c1csc(n1)CC(NC(=O)C1CC1C)C(=O)N1CCCC(N1)C(=O)OCC(C)(C)C2
Ans. 108

Qu. Try CC(C)NCC(C(=O)N1CCN(c2ncnc3c2C(C)CC3O)CC1)c1ccc(Cl)cc1 (stereo not drawn) + CCn1c(-c2cc(N3CCN(C)CC3)cnc2C(C)OC)c2c3cc(ccc31)-c1csc(n1)CC(NC(=O)C1CC1C)C(=O)N1CCCC(N1)C(=O)OCC(C)(C)C2 next.
Ans. 60.6

Qu. # iterate: C[C@@H](NC(=O)c1ncnc(N)c1Cl)c1ncc(C(=O)Nc2cc(C(F)(F)F)c(Cl)cn2)s1 + CCn1c(-c2cccnc2C(C)OC)c2c3cc(ccc31)N1CCOC(CC(NC(=O)C(C(C)C)N(C)C(=O)C3(F)CCN(C(=O)C#CC(C)(C)N(C)C)CC3)C(=O)N3CCCC(N3)C(=O)OCC(C)(C)C2)C1
Ans. 96.8

Qu. Now consider CC1(O)CCCC1n1c(=O)c(C(F)F)cc2cnc(NC3CCN(S(C)(=O)=O)CC3)nc21 (stereo not drawn) + CCn1c(-c2cc(N3CCN(C)CC3)cnc2C(C)OC)c2c3cc(ccc31)-c1csc(n1)CC(NC(=O)C1CC1C)C(=O)N1CCCC(N1)C(=O)OCC(C)(C)C2 and answer again.
Ans. 114

Qu. Same for CCC(CC)c1cc(NC2CCC(N)C2)n2nccc2n1 (stereo not drawn) + CCn1c(-c2cc(N3CCN(C)CC3)cnc2C(C)OC)c2c3cc(ccc31)-c1csc(n1)CC(NC(=O)C1CC1C)C(=O)N1CCCC(N1)C(=O)OCC(C)(C)C2
Ans. 13.7

Qu. Input CC(Nc1ccc2c(c1)OCCn1cc(N3C(=O)OCC3C(F)F)nc1-2)C(N)=O (stereo not drawn) + CCn1c(-c2cccnc2C(C)OC)c2c3cc(ccc31)N1CCOC(CC(NC(=O)C(C(C)C)N(C)C(=O)C3(F)CCN(C(=O)C#CC(C)(C)N(C)C)CC3)C(=O)N3CCCC(N3)C(=O)OCC(C)(C)C2)C1
Ans. 80.1

Qu. Ok, now NC1c2ccccc2OC12CCN(c1cnc3c(N4CCCc5ncccc54)n[nH]c3n1)CC2 (stereo not drawn) + CCn1c(-c2cccnc2C(C)OC)c2c3cc(ccc31)N1CCOC(CC(NC(=O)C(C(C)C)N(C)C(=O)C3(F)CCN(C(=O)C#CC(C)(C)N(C)C)CC3)C(=O)N3CCCC(N3)C(=O)OCC(C)(C)C2)C1
Ans. 50.5

Qu. Ok, now CC(Nc1ccc2c(c1)OCCn1cc(N3C(=O)OCC3C(F)F)nc1-2)C(N)=O (stereo not drawn) + CCn1c(-c2cc(N3CCN(C)CC3)cnc2C(C)OC)c2c3cc(ccc31)-c1csc(n1)CC(NC(=O)C1CC1C)C(=O)N1CCCC(N1)C(=O)OCC(C)(C)C2
Ans. 39.1

----------
tested on: 695427-040-R-J1-PDC complex spheroid viability; experiment: Anticancer human tumor 695427-040-R-J1-PDC cell line growth inhibition [RAS]; conditions: second compound 0.1 µM; first compound 10 µM; active compounds read low;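 further: viability read after seven days of drug exposure; 100% = DMSO vehicle control viability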
Quantity: viability, T/C

Qu. Can you share its viability, T/C? I mean this compound: CC(=O)OC12COC1CC(O)C1(C)C(=O)C(O)C3=C(C)C(OC(=O)C(O)C(NC(=O)OC(C)(C)C)c4ccccc4)CC(O)(C(OC(=O)c4ccccc4)C21)C3(C)C (stereo unspecified) + C=CC(=O)N1CCN(c2nc(OCC3CCCN3C)nc3c(F)c(-c4nc(N)cc(C)c4C(F)(F)F)c(Cl)cc23)C(C)C1
Ans. 96.9%

Qu. For CC1(O)CCCC1n1c(=O)c(C(F)F)cc2cnc(NC3CCN(S(C)(=O)=O)CC3)nc21 (stereo unspecified) + C=CC(=O)N1CCN(c2nc(OCC3CCCN3C)nc3c(F)c(-c4nc(N)cc(C)c4C(F)(F)F)c(Cl)cc23)C(C)C1 then?
Ans. 56.4%

Qu. Cool, now NC1c2ccccc2OC12CCN(c1cnc3c(N4CCCc5ncccc54)n[nH]c3n1)CC2 (stereo unspecified) + C#Cc1c(F)ccc2cc(O)cc(-c3ncc4c(N5CC6CCC(C5)N6)nc(OCC56CCCN5CC(F)C6)nc4c3F)c12
Ans. 23.5%

Qu. // next record C[C@@H](NC(=O)c1ncnc(N)c1Cl)c1ncc(C(=O)Nc2cc(C(F)(F)F)c(Cl)cn2)s1 + C#Cc1c(F)ccc2cc(O)cc(-c3ncc4c(N5CC6CCC(C5)N6)nc(OCC56CCCN5CC(F)C6)nc4c3F)c12
Ans. 70.9%

Qu. Repeat with CC(C)NCC(C(=O)N1CCN(c2ncnc3c2C(C)CC3O)CC1)c1ccc(Cl)cc1 (stereo unspecified) + C=CC(=O)N1CCN(c2nc(OCC3CCCN3C)nc3c(F)c(-c4nc(N)cc(C)c4C(F)(F)F)c(Cl)cc23)C(C)C1
Ans. 111%

Qu. Now consider Cc1nc(N2CCC3(CC2)COC(C)C3N)c(CO)nc1Sc1ccnc(N)c1Cl (stereo unspecified) + C=CC(=O)N1CCN(c2nc(OCC3CCCN3C)nc3c(F)c(-c4nc(N)cc(C)c4C(F)(F)F)c(Cl)cc23)C(C)C1 and answer again.
Ans. 57.7%

Qu. Thanks! And CCC(CC)c1cc(NC2CCC(N)C2)n2nccc2n1 (stereo unspecified) + C=CC(=O)N1CCN(c2nc(OCC3CCCN3C)nc3c(F)c(-c4nc(N)cc(C)c4C(F)(F)F)c(Cl)cc23)C(C)C1 ?
Ans. 12.1%

Qu. Now consider CC(Nc1ccc2c(c1)OCCn1cc(N3C(=O)OCC3C(F)F)nc1-2)C(N)=O (stereo unspecified) + C#Cc1c(F)ccc2cc(O)cc(-c3ncc4c(N5CC6CCC(C5)N6)nc(OCC56CCCN5CC(F)C6)nc4c3F)c12 and answer again.
Ans. 35.4%

Qu. Same for CCC(CC)c1cc(NC2CCC(N)C2)n2nccc2n1 (stereo unspecified) + C#Cc1c(F)ccc2cc(O)cc(-c3ncc4c(N5CC6CCC(C5)N6)nc(OCC56CCCN5CC(F)C6)nc4c3F)c12
Ans. 13.9%

Qu. # iterate: CC1(O)CCCC1n1c(=O)c(C(F)F)cc2cnc(NC3CCN(S(C)(=O)=O)CC3)nc21 (stereo unspecified) + C#Cc1c(F)ccc2cc(O)cc(-c3ncc4c(N5CC6CCC(C5)N6)nc(OCC56CCCN5CC(F)C6)nc4c3F)c12
Ans. 52.5%

Qu. Then what about the compound NC1c2ccccc2OC12CCN(c1cnc3c(N4CCCc5ncccc54)n[nH]c3n1)CC2 (stereo unspecified) + C=CC(=O)N1CCN(c2nc(OCC3CCCN3C)nc3c(F)c(-c4nc(N)cc(C)c4C(F)(F)F)c(Cl)cc23)C(C)C1 ?
Ans. 41.9%

----------
system: 695427-040-R-J1-PDC complex spheroid viability; test: Anticancer human tumor 695427-040-R-J1-PDC cell line growth inhibition [RAS]; settings: second compound 0.000949 µM; first compound 3.16 µM; active compounds read low;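 further: viability read after seven days of drug exposure; 100% = DMSO vehicle control viability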
Returns: string. Value is y if measured viability, T/C is below 60%, and n if it is greater than or equal to it.

Qu. Dear reviewer, please state whether CC1(O)CCCC1n1c(=O)c(C(F)F)cc2cnc(NC3CCN(S(C)(=O)=O)CC3)nc21 (stereo not drawn) + CCn1c(-c2cccnc2C(C)OC)c2c3cc(ccc31)N1CCOC(CC(NC(=O)C(C(C)C)N(C)C(=O)C3(F)CCN(C(=O)C#CC(C)(C)N(C)C)CC3)C(=O)N3CCCC(N3)C(=O)OCC(C)(C)C2)C1 has viability, T/C strictly beneath 60%.
Ans. n

Qu. Try the compound Cc1nc(N2CCC3(CC2)COC(C)C3N)c(CO)nc1Sc1ccnc(N)c1Cl (stereo not drawn) + CCn1c(-c2cc(N3CCN(C)CC3)cnc2C(C)OC)c2c3cc(ccc31)-c1csc(n1)CC(NC(=O)C1CC1C)C(=O)N1CCCC(N1)C(=O)OCC(C)(C)C2
Ans. y

Qu. Check CCC(CC)c1cc(NC2CCC(N)C2)n2nccc2n1 (stereo not drawn) + CCn1c(-c2cccnc2C(C)OC)c2c3cc(ccc31)N1CCOC(CC(NC(=O)C(C(C)C)N(C)C(=O)C3(F)CCN(C(=O)C#CC(C)(C)N(C)C)CC3)C(=O)N3CCCC(N3)C(=O)OCC(C)(C)C2)C1 too.
Ans. y

Qu. Here is the next compound: CC(=O)OC12COC1CC(O)C1(C)C(=O)C(O)C3=C(C)C(OC(=O)C(O)C(NC(=O)OC(C)(C)C)c4ccccc4)CC(O)(C(OC(=O)c4ccccc4)C21)C3(C)C (stereo not drawn) + CCn1c(-c2cccnc2C(C)OC)c2c3cc(ccc31)N1CCOC(CC(NC(=O)C(C(C)C)N(C)C(=O)C3(F)CCN(C(=O)C#CC(C)(C)N(C)C)CC3)C(=O)N3CCCC(N3)C(=O)OCC(C)(C)C2)C1
Ans. n

Qu. Would you mind doing CC(C)NCC(C(=O)N1CCN(c2ncnc3c2C(C)CC3O)CC1)c1ccc(Cl)cc1 (stereo not drawn) + CCn1c(-c2cccnc2C(C)OC)c2c3cc(ccc31)N1CCOC(CC(NC(=O)C(C(C)C)N(C)C(=O)C3(F)CCN(C(=O)C#CC(C)(C)N(C)C)CC3)C(=O)N3CCCC(N3)C(=O)OCC(C)(C)C2)C1 as well?
Ans. n

Qu. Cool, now CC(=O)OC12COC1CC(O)C1(C)C(=O)C(O)C3=C(C)C(OC(=O)C(O)C(NC(=O)OC(C)(C)C)c4ccccc4)CC(O)(C(OC(=O)c4ccccc4)C21)C3(C)C (stereo not drawn) + CCn1c(-c2cc(N3CCN(C)CC3)cnc2C(C)OC)c2c3cc(ccc31)-c1csc(n1)CC(NC(=O)C1CC1C)C(=O)N1CCCC(N1)C(=O)OCC(C)(C)C2
Ans. n

Qu. Here is the next compound: NC1c2ccccc2OC12CCN(c1cnc3c(N4CCCc5ncccc54)n[nH]c3n1)CC2 (stereo not drawn) + CCn1c(-c2cc(N3CCN(C)CC3)cnc2C(C)OC)c2c3cc(ccc31)-c1csc(n1)CC(NC(=O)C1CC1C)C(=O)N1CCCC(N1)C(=O)OCC(C)(C)C2
Ans. y
